Each entry below carries its recorded Change.
- Tested on: Rattus norvegicus
- Test: Percent change in total cholesterol (TC) in cholic acid (0.5%)-, cholesterol (1.5%) -, and peanut oil (5.5%)- fed rats at a dose 30 mg/kg.
- Format: functional

CCCCCCCCCCCCn1nnc(C(C(=O)Nc2ccccn2)c2ccccc2)n1 (configuration not stated)	22%

Please examine the following record next.
What measured Change goes with CCCCCCCCCCCCn1nnc(C(C(=O)Nc2ccc3c(C)cc(C)nc3n2)c2ccccc2)n1 (configuration not stated) ? 8%

###

- System: Sterol O-acyltransferase 1 (Rattus norvegicus, UniProt O70536)
- Test: Inhibitory concentration against Acyl coenzyme A:cholesterol acyltransferase 1 from rat liver
Readout type: pIC50
// returns pIC50 (minus log10 of molar concentration), number only

What measured pIC50 goes with CCCCCCCCCCCCn1nnc(C(C(=O)Nc2c(OC)cc(OC)cc2OC)c2ccccc2)n1 (stereo unspecified) ? 7.64

###

- Tested on: Rattus norvegicus
- Test: Percent change in total cholesterol (TC) in cholic acid (0.5%)-, cholesterol (1.5%) -, and peanut oil (5.5%)- fed rats at a dose 30 mg/kg.
- Assay type: functional
Each entry below carries its recorded Change.

Before answering, review these 8 worked examples.
CCCCCCCCCCCCn1nnc(C(C(=O)Nc2c(OC)cc(OC)cc2OC)c2ccc(F)cc2)n1 (stereo not given)	<68%
CCCCCCCCCCCCn1nnc(C(=O)Nc2c(C(C)C)cccc2C(C)C)n1	23%
CCCCCCCCCCCCn1nnc(C2(C(=O)Nc3c(OC)cc(OC)cc3OC)CCCC2)n1	<56%
CCCCCCCCCCCCn1nnc(C(C(=O)Nc2c(OC)cc(OC)cc2OC)c2ccc(OC)cc2)n1 (stereo not given)	<57%
CCCCCCCCn1nnc(C(C(=O)Nc2c(OC)cc(OC)cc2OC)c2ccccc2)n1 (stereo not given)	<39%
CCCCCCCCCCCCn1nnc(C(C(=O)Nc2c(OC)cc(OC)cc2OC)c2ccc(-c3ccccc3)cc2)n1 (stereo not given)	<43%
CCCCCCCCCCCCn1nnc(C(C#N)C(=O)Nc2c(OC)cc(OC)cc2OC)n1 (stereo not given)	<27%
CCCCCCCCCCCCn1nnc(C(C#N)C(=O)Nc2c(C(C)C)cccc2C(C)C)n1 (stereo not given)	<75%

What measured Change goes with CCCCCCCCCCCCn1nnc(C(C(=O)Nc2ccccc2)c2ccccc2)n1 (stereo not given) ? 38%

What measured Change goes with CCCCCCCCCCCCn1nnc(C(C(=O)Nc2c(C)nn(C)c2C)c2ccccc2)n1 (stereo not given) ? <62%

###

- System: Sterol O-acyltransferase 1 (Mus musculus) (UniProt Q61263)
- Sequence (whole entry): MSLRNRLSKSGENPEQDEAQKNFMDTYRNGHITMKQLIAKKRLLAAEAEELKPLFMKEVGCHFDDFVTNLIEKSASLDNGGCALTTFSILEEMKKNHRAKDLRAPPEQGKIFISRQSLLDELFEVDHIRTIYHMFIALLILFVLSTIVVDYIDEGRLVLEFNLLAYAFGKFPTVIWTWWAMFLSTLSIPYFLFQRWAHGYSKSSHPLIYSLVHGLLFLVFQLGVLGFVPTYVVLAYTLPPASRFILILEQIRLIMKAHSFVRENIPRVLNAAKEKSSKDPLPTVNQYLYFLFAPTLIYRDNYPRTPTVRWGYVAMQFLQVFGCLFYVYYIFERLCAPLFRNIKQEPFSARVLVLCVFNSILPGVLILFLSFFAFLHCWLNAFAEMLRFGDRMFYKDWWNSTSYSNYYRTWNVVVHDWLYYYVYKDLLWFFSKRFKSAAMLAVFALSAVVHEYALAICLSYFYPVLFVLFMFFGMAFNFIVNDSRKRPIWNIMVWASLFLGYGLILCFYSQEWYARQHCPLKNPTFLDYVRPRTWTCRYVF
- Test: In vitro inhibitory activity against acyl coenzyme A:cholesterol acyltransferase 1 in cell culture assay using murine IC-21 macrophages at 0.1 uM
# binning rule on inhibition: low class: < 9%; middle class: ≥ 9% and < 40%; high class: ≥ 40%

Reference set (3 entries):
CCCCCCCCCCCCn1nnc(C(C(=O)Nc2c(OC)cc(OC)cc2OC)c2ccc(N(C)C)cc2)n1 (stereo not given)	low class
CCCCCCCCCCCCn1nnc(C(C(=O)NC2CC2)c2ccccc2)n1 (stereo not given)	middle class
CCCCCCCCCCCCn1nnc(C(C(=O)Nc2ncccc2C)c2ccccc2)n1 (stereo not given)	low class

In plain terms, what class is C=CCCCCCCCCCCn1nnc(C(C(=O)Nc2c(OC)cc(OC)cc2OC)c2ccccc2)n1 (stereo not given) ? middle class

In plain terms, what class is CCCCCCCCCCCCn1nnc(C(C(=O)Nc2c(OC)cc(OC)cc2OC)c2ccccn2)n1 (stereo not given) ? middle class

In plain terms, what class is CCCCCCCCCCCCCCCCn1nnc(C(C(=O)Nc2c(OC)cc(OC)cc2OC)c2ccccc2)n1 (stereo not given) ? high class

In plain terms, what class is CCCCCCCCCCCCn1nnc(C(Cc2ccccc2)C(=O)Nc2c(OC)cc(OC)cc2OC)n1 (stereo not given) ? high class

In plain terms, what class is CCCCCCCCCCCCn1nnc(C(C(=O)NC(C)(C)C)c2ccccc2)n1 (stereo not given) ? low class

###

- System: Sterol O-acyltransferase 1 (Rattus norvegicus, UniProt O70536)
- Test: In vitro inhibitory activity against acyl coenzyme A:cholesterol acyltransferase 1 of liver microsomes isolated from cholesterol-fed rats.
Readout type: IC50

CCCCCCCCCCCCn1nnc(CCC(=O)Nc2c(C(C)C)cccc2C(C)C)n1	30 nM

What measured IC50 goes with CCCCCCCCCCCCn1nnc(C(C)(C)C(=O)Nc2c(OC)cc(OC)cc2OC)n1 ? 33 nM

What measured IC50 goes with CCCCCCCCCCCCn1nnc(C(C(=O)Nc2c(C(C)C)cccc2C(C)C)c2ccccn2)n1 (stereo not given) ? 26 nM

What measured IC50 goes with CCCCCCCCCCCCc1nnn(CC(=O)Nc2c(C(C)C)cccc2C(C)C)n1 ? 6 nM

What measured IC50 goes with CCCCCCCCCCCCc1nnn(CC(=O)Nc2c(OC)cc(OC)cc2OC)n1 ? 56 nM

###

- System: UniProtKB Q61263
- Test: In vitro inhibitory activity against acyl coenzyme A:cholesterol acyltransferase 1 in cell culture assay using murine IC-21 macrophages at 0.1 uM
Readout type: inhibition

Before answering, review these 2 worked examples.
CCCCCCCCCCCCn1nnc(C(C#N)C(=O)Nc2c(C(C)C)cccc2C(C)C)n1 (centres undefined)	7%
CCCCCCCCCCCCc1nnn(C(C(=O)Nc2c(C(C)C)cccc2C(C)C)c2ccccc2)n1 (centres undefined)	67%

Query the reported inhibition for UniProtKB Q61263; item: CCCCCCCCCCCCn1nnc(C(C)(C)C(=O)Nc2c(OC)cc(OC)cc2OC)n1 34%

Query the reported inhibition for UniProtKB Q61263; item: C=CCCCCCCCCCn1nnc(C(C(=O)Nc2c(OC)cc(OC)cc2OC)c2ccccc2)n1 (centres undefined) 54%

Query the reported inhibition for UniProtKB Q61263; item: CCCCCCCCCCCCn1nnc(C(C)C(=O)Nc2c(OC)cc(OC)cc2OC)n1 (centres undefined) 49%

Query the reported inhibition for UniProtKB Q61263; item: CCCCCCCCCCCCn1nnc(C(C(=O)Nc2c(C)nn(C)c2C)c2ccccc2)n1 (centres undefined) 66%

Query the reported inhibition for UniProtKB Q61263; item: CCCCCCCCCCCCc1nnn(CC(=O)Nc2c(OC)cc(OC)cc2OC)n1 61%

Query the reported inhibition for UniProtKB Q61263; item: CCCCCCCCCCCCn1nnc(C(C(=O)Nc2c(OC)cc(OC)cc2OC)C2CCCCC2)n1 (centres undefined) 8%

Query the reported inhibition for UniProtKB Q61263; item: CCCCCCCCCCCCn1nnc(C(C(=O)Nc2c(OC)cc(OC)cc2OC)c2ccccc2)n1 (centres undefined) 40%

###

- System: Sterol O-acyltransferase 1 (Rattus norvegicus, UniProt O70536)
- Sequence (O70536 whole entry): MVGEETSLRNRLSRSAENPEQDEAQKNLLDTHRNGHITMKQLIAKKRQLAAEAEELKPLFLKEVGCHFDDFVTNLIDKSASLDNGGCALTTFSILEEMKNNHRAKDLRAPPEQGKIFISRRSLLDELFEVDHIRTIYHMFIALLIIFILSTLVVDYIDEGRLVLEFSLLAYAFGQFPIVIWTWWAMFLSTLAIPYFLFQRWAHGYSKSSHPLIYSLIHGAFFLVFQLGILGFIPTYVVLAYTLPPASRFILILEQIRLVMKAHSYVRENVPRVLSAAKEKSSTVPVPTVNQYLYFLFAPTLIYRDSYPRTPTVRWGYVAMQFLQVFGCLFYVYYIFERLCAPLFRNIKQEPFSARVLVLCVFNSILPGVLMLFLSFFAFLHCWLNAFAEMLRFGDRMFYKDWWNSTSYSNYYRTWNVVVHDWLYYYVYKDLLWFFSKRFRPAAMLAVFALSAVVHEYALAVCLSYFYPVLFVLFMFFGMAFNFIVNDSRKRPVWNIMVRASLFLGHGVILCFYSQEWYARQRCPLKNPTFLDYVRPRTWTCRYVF
- Test: In vitro inhibitory activity against acyl coenzyme A:cholesterol acyltransferase 1 of liver microsomes isolated from cholesterol-fed rats.
pIC50: −log10 of the molar value.
Mark 0 for pIC50 values under 7, and 1 for everything at or above.

CCCCCCCCCCCCn1nnc(C(=O)Nc2c(C(C)C)cccc2C(C)C)n1	0
CCCCCCCCCCCCn1nnc(CC(=O)Nc2c(OC)cc(OC)cc2OC)n1	1
CCCCCCCCCCCCn1nnc(C(C(=O)Nc2c(OC)cc(OC)cc2OC)c2ccc(OC)cc2)n1 (stereo not given)	0
CCCCCCCCCCCCn1nnc(C(C(=O)Nc2ccc(F)cc2F)c2ccccc2)n1 (stereo not given)	1

Now consider a different compound.
Quick check, pIC50 >= 7? CCCCCCCCCCCCCCCCn1nnc(C(C(=O)Nc2c(OC)cc(OC)cc2OC)c2ccccc2)n1 (stereo not given) 1
